# Procedure summary: shake flask on a mixture of 185; loss from the water phase only; LC-Orbitrap peak areas
# Measurement parameters: room
// NB: equality with 1 log10 counts as Not met; only log partition chloroform / HPLC water, unbuffered, traces of methanol / DMSO strictly below is Met

[
  {
    "Molecule": "CC(C)(C#N)Nc1nc(Cl)nc(NC2CC2)n1",
    "Class assignment": "Not met"
  }
]

Task: Please indicate whether the reported log partition chloroform / HPLC water, unbuffered, traces of methanol / DMSO of `CCCCCCCCCCCCN1CCCCCC1=O` is strictly below 1 log10.
Output: Met

Task: Please indicate whether the reported log partition chloroform / HPLC water, unbuffered, traces of methanol / DMSO of `Cc1cc(O)cc(C)c1Cl` is strictly below 1 log10.
Output: Met

Task: Please indicate whether the reported log partition chloroform / HPLC water, unbuffered, traces of methanol / DMSO of C=CC(=O)OCC1CC2CC1C1CCC(COC(=O)C=C)C21 (centres unmarked) is strictly below 1 log10.
Output: Met

Task: Please indicate whether the reported log partition chloroform / HPLC water, unbuffered, traces of methanol / DMSO of `C#CC(C)(C)NC(=O)c1cc(Cl)cc(Cl)c1` is strictly below 1 log10.
Output: Not met

Task: Please indicate whether the reported log partition chloroform / HPLC water, unbuffered, traces of methanol / DMSO of `CCOC(=O)CC(=O)c1ccccc1` is strictly below 1 log10.
Output: Met

Task: Please indicate whether the reported log partition chloroform / HPLC water, unbuffered, traces of methanol / DMSO of `CO/N=C(/C1=NOCCO1)c1ccccc1Oc1ncnc(Oc2ccccc2Cl)c1F` is strictly below 1 log10.
Output: Not met

Task: Please indicate whether the reported log partition chloroform / HPLC water, unbuffered, traces of methanol / DMSO of `O=C(O)CCN(C1(C(=O)NO)CCCC1)S(=O)(=O)c1ccc(Oc2ccc(F)cc2)cc1` is strictly below 1 log10.
Output: Met

Task: Please indicate whether the reported log partition chloroform / HPLC water, unbuffered, traces of methanol / DMSO of `Cc1cc(SCc2sc(-c3ccc(C(F)(F)F)c(F)c3)nc2C)ccc1OCC(=O)O` is strictly below 1 log10.
Output: Met

* * *

# Procedure summary: shake flask on a mixture of 185; loss from the water phase only; LC-Orbitrap peak areas
# Measurement parameters: room
// NB: equality with 0.8 log10 counts as f; only log partition chloroform / HPLC water, unbuffered, traces of methanol / DMSO strictly below is t

Worked cases, answers included:
[
  {
    "Compound": "NC(=O)N/N=C/c1ccc([N+](=O)[O-])o1",
    "Class assignment": "t"
  },
  {
    "Compound": "COC(=O)C(C)N(C(=O)c1ccco1)c1c(C)cccc1C (centres unmarked)",
    "Class assignment": "f"
  },
  {
    "Compound": "CCCCNC(=S)NCCCC",
    "Class assignment": "t"
  }
]

Task: Please indicate whether the reported log partition chloroform / HPLC water, unbuffered, traces of methanol / DMSO of `O=C1C=CC(=O)N1c1ccc(Cc2ccc(N3C(=O)C=CC3=O)cc2)cc1` is strictly below 0.8 log10.
Output: t

Task: Please indicate whether the reported log partition chloroform / HPLC water, unbuffered, traces of methanol / DMSO of `CN1COCN(Cc2cnc(Cl)s2)C1=N[N+](=O)[O-]` is strictly below 0.8 log10.
Output: f

Task: Please indicate whether the reported log partition chloroform / HPLC water, unbuffered, traces of methanol / DMSO of `CCCN(CCC)c1c([N+](=O)[O-])cc(C(C)C)cc1[N+](=O)[O-]` is strictly below 0.8 log10.
Output: t

Task: Please indicate whether the reported log partition chloroform / HPLC water, unbuffered, traces of methanol / DMSO of `CCCOC(=O)c1ccc(C(=O)OCCC)nc1` is strictly below 0.8 log10.
Output: f

Task: Please indicate whether the reported log partition chloroform / HPLC water, unbuffered, traces of methanol / DMSO of `COC(=O)c1ccc(C(=O)OC)c(C(=O)OC)c1` is strictly below 0.8 log10.
Output: f

Task: Please indicate whether the reported log partition chloroform / HPLC water, unbuffered, traces of methanol / DMSO of `O=C(Nc1ccccc1-c1ccc(Cl)cc1)c1cccnc1Cl` is strictly below 0.8 log10.
Output: f

Task: Please indicate whether the reported log partition chloroform / HPLC water, unbuffered, traces of methanol / DMSO of `O=C(c1ccccc1)c1ccc(O)cc1O` is strictly below 0.8 log10.
Output: f

Task: Please indicate whether the reported log partition chloroform / HPLC water, unbuffered, traces of methanol / DMSO of `CC(=O)Nc1ccc(C)cc1C` is strictly below 0.8 log10.
Output: t

Task: Please indicate whether the reported log partition chloroform / HPLC water, unbuffered, traces of methanol / DMSO of `Cc1cc2c3c(c1)C(c1ccccc1)=N[C@@H](NC(=O)c1ccncc1)C(=O)N3CC2` is strictly below 0.8 log10.
Output: f

* * *

# Procedure summary: shake flask on a mixture of 185; loss from the water phase only; LC-Orbitrap peak areas
# Measurement parameters: room
// NB: equality with -0.3 log10 counts as False; only log partition cyclohexane / HPLC water, unbuffered, traces of methanol / DMSO strictly below is True

Task: Please indicate whether the reported log partition cyclohexane / HPLC water, unbuffered, traces of methanol / DMSO of CCCCC(CC)COC(=O)c1ccccc1C(=O)O (stereo not shown) is strictly below -0.3 log10.
Output: True

Task: Please indicate whether the reported log partition cyclohexane / HPLC water, unbuffered, traces of methanol / DMSO of `C[C@H](CCC(=O)O)[C@H]1CC[C@H]2[C@@H]3CC[C@@H]4C[C@H](O)CC[C@]4(C)[C@H]3CC[C@]12C` is strictly below -0.3 log10.
Output: False

Task: Please indicate whether the reported log partition cyclohexane / HPLC water, unbuffered, traces of methanol / DMSO of `CC(C)Nc1nc(N)nc(Cl)n1` is strictly below -0.3 log10.
Output: True

Task: Please indicate whether the reported log partition cyclohexane / HPLC water, unbuffered, traces of methanol / DMSO of `CCCCNC(=S)NCCCC` is strictly below -0.3 log10.
Output: False

Task: Please indicate whether the reported log partition cyclohexane / HPLC water, unbuffered, traces of methanol / DMSO of `CCCCCCCCCCCCN1CCCCCC1=O` is strictly below -0.3 log10.
Output: True

Task: Please indicate whether the reported log partition cyclohexane / HPLC water, unbuffered, traces of methanol / DMSO of CC(C)C1(C)N=C(c2nc3ccccc3cc2C(=O)O)NC1=O (stereo not shown) is strictly below -0.3 log10.
Output: True

Task: Please indicate whether the reported log partition cyclohexane / HPLC water, unbuffered, traces of methanol / DMSO of `c1ccc(CCCc2ccncc2)cc1` is strictly below -0.3 log10.
Output: False

Task: Please indicate whether the reported log partition cyclohexane / HPLC water, unbuffered, traces of methanol / DMSO of `C=C(C)C(=O)OCCOCCOC(=O)C(=C)C` is strictly below -0.3 log10.
Output: False

Task: Please indicate whether the reported log partition cyclohexane / HPLC water, unbuffered, traces of methanol / DMSO of C=CC(=O)OCC1CC2CC1C1CCC(COC(=O)C=C)C21 (stereo not shown) is strictly below -0.3 log10.
Output: False

Task: Please indicate whether the reported log partition cyclohexane / HPLC water, unbuffered, traces of methanol / DMSO of O=C1OC(=O)C2C3C=CC(C3)C12 (stereo not shown) is strictly below -0.3 log10.
Output: True

Task: Please indicate whether the reported log partition cyclohexane / HPLC water, unbuffered, traces of methanol / DMSO of `CC(=O)/C=C/c1ccccc1` is strictly below -0.3 log10.
Output: True

Task: Please indicate whether the reported log partition cyclohexane / HPLC water, unbuffered, traces of methanol / DMSO of `CCCCNS(=O)(=O)c1ccc(C)cc1` is strictly below -0.3 log10.
Output: False

Task: Please indicate whether the reported log partition cyclohexane / HPLC water, unbuffered, traces of methanol / DMSO of `CC(C)c1cccc(O)c1` is strictly below -0.3 log10.
Output: True

Task: Please indicate whether the reported log partition cyclohexane / HPLC water, unbuffered, traces of methanol / DMSO of `CCc1ccc(C(=O)NN(C(=O)c2cc(C)cc(C)c2)C(C)(C)C)cc1` is strictly below -0.3 log10.
Output: False

Task: Please indicate whether the reported log partition cyclohexane / HPLC water, unbuffered, traces of methanol / DMSO of `Nc1ccc(/N=N/c2ccccc2)cc1` is strictly below -0.3 log10.
Output: False

* * *

# Procedure summary: shake flask on a mixture of 185; loss from the water phase only; LC-Orbitrap peak areas
# Measurement parameters: room
Threshold check on log partition n-octane / HPLC water, unbuffered, traces of methanol / DMSO: at or above -0.3 log10 gives rule met, strictly below gives rule not met.

Worked cases, answers included:
[
  {
    "Molecule": "Nc1cc2c3c(c1)C(c1ccccc1)=N[C@@H](NC(=O)c1cccnc1)C(=O)N3CC2",
    "Class assignment": "rule not met"
  },
  {
    "Molecule": "CCCCC(CC)COC(=O)c1ccccc1C(=O)O (centres unmarked)",
    "Class assignment": "rule not met"
  },
  {
    "Molecule": "CN(C1CCCCC1)S(=O)(=O)c1ccccc1N",
    "Class assignment": "rule met"
  },
  {
    "Molecule": "CCCCCCCCCCCCN1CCCCCC1=O",
    "Class assignment": "rule not met"
  }
]

Task: Check the entry CCCCOC(=O)C(C)Oc1ccc(Oc2ccc(C(F)(F)F)cn2)cc1 (centres unmarked) : does log partition n-octane / HPLC water, unbuffered, traces of methanol / DMSO equal or exceed -0.3 log10?
Output: rule not met

Task: Check the entry FC(F)C(F)(F)OCC(Cn1cncn1)c1ccc(Cl)cc1Cl (centres unmarked) : does log partition n-octane / HPLC water, unbuffered, traces of methanol / DMSO equal or exceed -0.3 log10?
Output: rule met

Task: Check the entry `COC(=O)c1ccc(C(=O)OC)c(C(=O)OC)c1` : does log partition n-octane / HPLC water, unbuffered, traces of methanol / DMSO equal or exceed -0.3 log10?
Output: rule met

Task: Check the entry `O=C1C=CC(=O)N1c1ccc(Cc2ccc(N3C(=O)C=CC3=O)cc2)cc1` : does log partition n-octane / HPLC water, unbuffered, traces of methanol / DMSO equal or exceed -0.3 log10?
Output: rule not met

Task: Check the entry CCOc1ccc2c(c1)C(C)CC(C)(C)N2 (centres unmarked) : does log partition n-octane / HPLC water, unbuffered, traces of methanol / DMSO equal or exceed -0.3 log10?
Output: rule met

Task: Check the entry `COc1ccccc1/C=C/C=O` : does log partition n-octane / HPLC water, unbuffered, traces of methanol / DMSO equal or exceed -0.3 log10?
Output: rule met

Task: Check the entry OC(c1ccc(F)cc1)(c1cncnc1)c1ccccc1Cl (centres unmarked) : does log partition n-octane / HPLC water, unbuffered, traces of methanol / DMSO equal or exceed -0.3 log10?
Output: rule met
